Observable: melting point

Consider the following illustrative entries.
1. N=C(Nc1cc(F)c2ccccc2c1)Nc1cc(F)c2ccccc2c1 | 126 to 128 °C
2. N=C(Nc1cnc(F)c(F)c1)Nc1cnc(F)c(F)c1 | 128 to 130 °C
3. N=C(Nc1ccc2ccccc2c1)Nc1ccc2ccccc2c1 | 146 to 148 °C
4. N=C(Nc1ccccc1F)Nc1ccccc1F | 130 to 132 °C
5. N=C(Nc1ccc(Cl)cc1F)Nc1ccc(Cl)cc1F | 160 to 162 °C

Q: Item `N=C(Nc1cc(C(F)(F)F)cc(C(F)(F)F)c1)Nc1cc(C(F)(F)F)cc(C(F)(F)F)c1` has what recorded melting point?
Ans: 76 to 78 °C

Q: Same thing, different compound: `N=C(Nc1ccc(Br)cc1)Nc1ccc(Br)cc1`
Ans: 250 to 252 °C
